experimental_target: FL-N (nucleocapsid, full length) (SARS-CoV-2, UniProt P0DTC9 1-419)
test_name: fluorescence anisotropy; fit with locked stoichiometry n=4 RNA:FL-N; authors call it an estimate; Anisotropy: 50 mM Na phosphate pH 6.5, 150 mM NaCl, 1 mM NaN3, 50 nM RNA; EMSA: 20 mM Tris pH 7.5, 150 mM NaCl, 1 mM DTT, room temp, 25 uM RNA; NTD NMR: 20 mM Na phosphate pH 6.5, 20 mM NaCl, 25 C; CTD NMR: 20 mM Na phosphate pH 6, 200 mM NaCl
condition_context: protein: recombinant; tags: His-tag (TALON, imidazole eluted); chain copies: 2; label: 5',6-carboxyfluorescein (6-FAM) for anisotropy; unlabeled for NMR; single strand, no self-pairing
measure_name: Kd

Looking for the measured Kd of GGCACAUGGACGUC (ssRNA) [ss-14mer] , can you help?
~80 nM
